meta.source: patent US5439928A

# Target or system: desmolase (CSCC)
# Assay text: Cholesterol side chain cleavage (CSCC, desmolase) inhibition, mitochondrial fraction from human placenta or bovine adrenals
# Format: biochemical
# Study conditions: substrate 5 μM, 30 min, 37° C., read-out: IC-50 CSCC (desmolase)
Test readout: pIC50
Note on pIC50: it is the negative log10 of concentration, concentration in mol/L.

# count of solved cases: 8
Fc1ccc(CCC(c2ccc(F)cc2)c2c[nH]cn2)cc1 (stereo not drawn) [Compound 14c] : 4.66
Fc1ccc(C(CCCc2c[nH]cn2)c2ccc(F)cc2)cc1 [Compound 23a] : 3.76
Cc1cc(C)cc(CCCCC(c2ccc(F)cc2)c2c[nH]cn2)c1 (stereo not drawn) : 4.10
c1ccc(CCC(Cc2c[nH]cn2)c2ccccc2)cc1 (stereo not drawn) [Compound 16c, 4-(2,4-diphenylbutyl)-1H-imidazole] : 4.92
Cc1ccc(C(CCCc2c[nH]cn2)c2ccccc2)cc1 (stereo not drawn) : 4.02
Cc1cc(C)cc(C(CCCc2c[nH]cn2)c2ccccc2)c1 (stereo not drawn) [Compound 14a] : 4.19
COc1ccc(C(CCCc2c[nH]cn2)c2ccc(OC)cc2)cc1 [Compound 12a] : 4.34
Fc1ccc(C(CCc2ccccc2)c2c[nH]cn2)cc1 (stereo not drawn) : 4.66

Now consider the entry below.
Prompt: Determine from records and report pIC50 for Cc1ccccc1C(CCCc1c[nH]cn1)c1ccccc1 (stereo not drawn)
Response: 4.54

====

The compounds listed here are annotated with their pIC50.
# Target or system: desmolase (CSCC)
# Assay text: Cholesterol side chain cleavage (CSCC, desmolase) inhibition, mitochondrial fraction from human placenta or bovine adrenals
# Study conditions: substrate 5 μM, 30 min, 37° C., read-out: IC-50 CSCC (desmolase)
Scale: negative log10 of molar concentration, which is what pIC50 denotes.

# count of solved cases: 5
Cc1ccccc1C(CCCc1cncn1Cc1ccccc1)c1ccccc1 (stereo not drawn) : 4.49
C(=Cc1c[nH]cn1)CC(c1ccccc1)c1ccccc1 [Compound 22a, 4-(4,4-diphenyl-1-butenyl)-1H-imidazole] : 3.78
COc1cccc(CCCCC(c2ccc(F)cc2)c2c[nH]cn2)c1 (stereo not drawn) [Compound 11c] : 4.92
Cc1cccc(C(CCCc2cncn2Cc2ccccc2)c2ccccc2)c1 (stereo not drawn) : 4.42
Fc1ccc(C(CCCc2ccccc2)c2c[nH]cn2)cc1 (stereo not drawn) [Compound 10c] : 4.51

Prompt: In one line, give reported pIC50 of the entry COc1ccc(C(CCCc2c[nH]cn2)c2ccccc2)cc1 (stereo not drawn) [Compound 11a] .
Response: 3.72

Prompt: Provide one value: measured pIC50 of c1ccc(C(CCCc2c[nH]cn2)c2ccccc2)cc1
Response: 3.49

Prompt: Output measured pIC50 for this item: Cc1cccc(C(CCCc2c[nH]cn2)c2ccccc2)c1 (stereo not drawn)
Response: 5.12

Prompt: Identify measured pIC50 associated with Fc1ccc(C(CCc2ccccc2)Cc2c[nH]cn2)cc1 (stereo not drawn) [Compound 17c]
Response: 4.55

====

# Target or system: desmolase (CSCC)
# Assay text: Cholesterol side chain cleavage (CSCC, desmolase) inhibition, mitochondrial fraction from human placenta or bovine adrenals
# Study conditions: substrate 5 μM, 30 min, 37° C., read-out: IC-50 CSCC (desmolase)
pIC50: −log10 of the molar value.
Hi, to clarify the labels: satisfied covers pIC50 from 4 upward, not satisfied covers anything below 4.

A selection of reference data follows.
c1ccc(C(CCCCc2c[nH]cn2)c2ccccc2)cc1 [Compound 18a, 4-(5,5-diphenylpentyl)-1H-imidazole] : satisfied
Fc1ccc(C(CCCCc2ccccc2)c2c[nH]cn2)cc1 (centres unmarked) [Compound 1c] : satisfied
O=[N+]([O-])c1ccc(C(CCCc2c[nH]cn2)c2ccc([N+](=O)[O-])cc2)cc1 [Compound 24a] : satisfied
Cc1ccc(CCCCC(c2ccc(F)cc2)c2c[nH]cn2)cc1 (centres unmarked) [Compound 4c] : not satisfied

Attention now turns to another entry.
Prompt: Assess whether reported pIC50 for Cc1ccc(C(CCCc2cncn2Cc2ccccc2)c2ccccc2)cc1 (centres unmarked) [Compound 2a] sits at 4 or higher.
Response: satisfied
